# Method summary: Solubility pH 7
# Conditions used: pH 7, aqueous buffer
The entries below are paired with their reported solubility.
Result type: solubility (µg/mL)

> print(dat)
                               given.smiles  data.value
1  COc1ccc(C[C@H](NC(=O)[C@@H](C)NC(=O)C2COC2)C(=O)N[C@@H](CC2=CCCC2)C(=O)[C@@]2(C)CO2)cc1        1300
2  COc1ccc([C@@H](O)[C@H](NC(=O)[C@H](CO)NC(=O)CN2CCOCC2)C(=O)N[C@@H](CC2=CCCCC2)C(=O)[C@@]2(C)CO2)cc1        8230
3  COc1ccc(C[C@H](NC(=O)[C@@H](C)NC(=O)[C@@H]2CC[C@@H](O)C2)C(=O)N[C@@H](CC2CCCC2)C(=O)[C@@]2(C)CO2)cc1        1540
4  COc1ccc(C[C@H](NC(=O)[C@H](C)NC(=O)CN2CCOCC2)C(=O)N[C@@H](CC2=CCCCC2)C(=O)[C@@]2(C)CO2)cc1O        4570
5  COc1ccc(C[C@H](NC(=O)[C@H](C)NC(=O)CN2CCOCC2)C(=O)N[C@@H](Cc2ccccc2)C(=O)[C@@]2(C)CO2)cc1OC        1530
6  CCc1ccc(C[C@H](NC(=O)[C@H](C)NC(=O)CN2CCOCC2)C(=O)N[C@@H](CC2=CCCC2)C(=O)[C@@]2(C)CO2)cc1O        54.4

----------
# Target or system: immunoproteasome subunit LMP7 (Homo sapiens)
# Construct: Lysate from the human acute lymphoblastic leukemia cell line, MOLT-4; endogenous in cells; host or cells: MOLT-4
# Method summary: Proteasome active-site ELISA (ProCISE), LMP7, MOLT-4 lysate
# Type: biochemical
# Conditions used: MOLT4 lysate, 1 h continuous treatment, 25° C.
Result type: log10(IC50) (log10 of the value in nM)

Compound	log10(IC50)
COc1ccc(C[C@H](NC(=O)[C@H](C)NC(=O)CN2CCOCC2)C(=O)N[C@@H](CC2CC2)C(=O)[C@@]2(C)CO2)cc1 [Compound C-1006]	3.71
COc1ccc(C[C@H](NC(=O)[C@@H](C)NC(=O)[C@H]2CC[C@H](O)CC2)C(=O)N[C@@H](CC2=CCCC2)C(=O)[C@@]2(C)CO2)cc1 [Compound C-1057]	1.53
C[C@@H](NC(=O)[C@H]1CC[C@H](O)CC1)C(=O)N[C@@H](Cc1ccc2[nH]cnc2c1)C(=O)N[C@@H](CC1CCCC1)C(=O)[C@@]1(C)CO1 [Compound C-1105]	1.69
C[C@@H](NC(=O)[C@H]1CC[C@H](O)CC1)C(=O)N[C@@H](Cc1ccc(S(C)(=O)=O)cc1)C(=O)N[C@@H](CC1=CCCC1)C(=O)[C@@]1(C)CO1 [Compound C-1096]	1.40
COc1ccc(C[C@H](NC(=O)[C@H](C)NC(=O)CN2CCOCC2)C(=O)N[C@@H](CC2=CCOCC2)C(=O)[C@@]2(C)CO2)cc1 [Compound C-1020]	3.06
COc1ccc(C[C@H](NC(=O)[C@H](C)NC(=O)CN2CCC(F)(F)CC2)C(=O)N[C@@H](CC2CCCC2)C(=O)[C@@]2(C)CO2)cc1 [Compound C-1046]	1.58
COc1ccc(C[C@H](NC(=O)[C@@H](C)NC(=O)[C@H]2CCCOC2)C(=O)N[C@@H](CC2CCCC2)C(=O)[C@@]2(C)CO2)cc1 [Compound C-1053]	2.43
COc1ccc(C[C@H](NC(=O)[C@@H](C)NC(=O)[C@@H]2CCCOC2)C(=O)N[C@@H](CC2CCCC2)C(=O)[C@@]2(C)CO2)cc1 [Compound C-1052]	2.00
COc1ccc(C[C@H](NC(=O)[C@@H](C)NC(=O)C2CCCC2)C(=O)N[C@@H](CC2CCCC2)C(=O)[C@@]2(C)CO2)cc1 [Compound C-1021]	2.05
COc1ccc(C[C@H](NC(=O)[C@H](C)NC(=O)[C@H]2CCCO2)C(=O)N[C@@H](Cc2ccccc2)C(=O)[C@@]2(C)CO2)cc1 [Compound C-1166]	2.56
C[C@H](NC(=O)CN1CCOCC1)C(=O)N[C@@H](Cc1ccc(S(C)(=O)=O)cc1)C(=O)N[C@@H](CC1=CCCC1)C(=O)[C@@]1(C)CO1 [Compound C-1125]	1.99
COc1ccc(C[C@H](NC(=O)[C@@H](C)NC(=O)[C@H]2CC[C@@H](O)C2)C(=O)N[C@@H](CC2CCCC2)C(=O)[C@@]2(C)CO2)cc1 [Compound C-1075]	1.96
COc1ccc(C[C@H](NC(=O)[C@@H](C)NC(=O)CC2CCOCC2)C(=O)N[C@@H](CC2CCCC2)C(=O)[C@@]2(C)CO2)cc1 [Compound C-1011]	2.75
COc1ccc(C[C@H](NC(=O)[C@H](C)NC(=O)CN2CCOCC2)C(=O)N[C@@H](CC2CCCC2)C(=O)[C@@]2(C)CO2)cc1 [Compound C-1005]	2.27
COc1ccc(C[C@H](NC(=O)[C@H](C)NC(=O)CN2CCOCC2)C(=O)N[C@@H](CC2CCC2)C(=O)[C@@]2(C)CO2)cc1 [Compound C-1004]	2.73
COc1ccc([C@@H](O)[C@H](NC(=O)[C@@H](C)NC(=O)[C@H]2CC[C@H](O)CC2)C(=O)N[C@@H](CC2CCCC2)C(=O)[C@@]2(C)CO2)cc1 [Compound C-1079]	1.54
COc1ccc(C[C@H](NC(=O)[C@H](C)NC(=O)CN2CCOCC2)C(=O)N[C@@H](CC2=CCCC2)C(=O)[C@@]2(C)CO2)cc1O [Compound C-1085]	2.20
COc1ccc(C[C@H](NC(=O)[C@@H](C)NC(=O)C2CC3(COC3)C2)C(=O)N[C@@H](CC2=CCCC2)C(=O)[C@@]2(C)CO2)cc1 [Compound C-1063]	1.96
COc1ccc(C[C@H](NC(=O)[C@@H](C)NC(=O)[C@H]2CC[C@H](O)CC2)C(=O)N[C@@H](CC2CCCC2)C(=O)[C@@]2(C)CO2)cc1 [Compound C-1064]	1.78
C[C@H](NC(=O)CN1CCOCC1)C(=O)N[C@@H](Cc1ccc2c(c1)OCO2)C(=O)N[C@@H](CC1CCCC1)C(=O)[C@@]1(C)CO1 [Compound C-1012]	2.22
C[C@H](NC(=O)CN1CCOCC1)C(=O)N[C@@H](Cc1ccc(S(N)(=O)=O)cc1)C(=O)N[C@@H](CC1CCCC1)C(=O)[C@@]1(C)CO1 [Compound C-1054]	2.12
C[C@@H](NC(=O)[C@H]1CC[C@H](O)CC1)C(=O)N[C@@H](Cc1ccc(C#N)cc1)C(=O)N[C@@H](CC1CCCC1)C(=O)[C@@]1(C)CO1 [Compound C-1103]	1.59

----------
# Target or system: human 20S immunoproteasome (i20S) (Homo sapiens)
# Method summary: 20S proteasome assay, chymotrypsin-like activity (succinyl-Leu-Leu-Val-Tyr-AMC), i20S
# Assay type: biochemical
# Conditions used: LLVY substrate, 1 h continuous
pIC50: −log10 of the molar value.
Use 7 as the dividing line for pIC50, with the line itself on the 1 side and lower values as 0.

> print(dat)
                               given.smiles                          target.or.system  assigned.label
1  COc1ccc(C[C@H](NC(=O)[C@@H](C)NC(=O)C2CC3(COC3)C2)C(=O)N[C@@H](CC2=CCCC2)C(=O)[C@@]2(C)CO2)cc1  human 20S immunoproteasome (i20S) (Homo sapiens)               1
2  COc1ccc(C[C@H](NC(=O)[C@H](C)NC(=O)CN2CCOCC2)C(=O)N[C@@H](Cc2ccccc2)C(=O)[C@@]2(C)CO2)cc1OC  human 20S immunoproteasome (i20S) (Homo sapiens)               0
3  COc1ccc(C[C@H](NC(=O)[C@H](C)NC(=O)CN2CCC(Cl)CC2)C(=O)N[C@@H](CC2CCCC2)C(=O)[C@@]2(C)CO2)cc1  human 20S immunoproteasome (i20S) (Homo sapiens)               0
4  COc1ccc(C[C@H](NC(=O)[C@@H](C)NC(=O)[C@H]2CCOC2)C(=O)N[C@@H](CC2CCCC2)C(=O)[C@@]2(C)CO2)cc1  human 20S immunoproteasome (i20S) (Homo sapiens)               0

----------
The entries below are paired with their reported IC50.
# Target or system: proteasome subunit β5 (beta5) (Homo sapiens, UniProt P28074)
# Construct: Lysate from the human acute lymphoblastic leukemia cell line, MOLT-4; endogenous in cells; host or cells: MOLT-4
# Method summary: Proteasome active-site ELISA (ProCISE), beta5, MOLT-4 lysate
# Assay type: biochemical
# Conditions used: MOLT4 lysate, human, 1 h continuous treatment, 25° C.

Compound	IC50 [nM]
COc1ccc(C[C@H](NC(=O)[C@@H](NC(=O)CN2CCOCC2)C2COC2)C(=O)N[C@@H](CC2=CCCCC2)C(=O)[C@@]2(C)CO2)cc1 [Compound C-1138]	409
COc1ccc(C[C@H](NC(=O)[C@H](C)NC(=O)CN2CCOCC2)C(=O)N[C@@H](CC2=CCCC2)C(=O)[C@@]2(C)CO2)cc1 [Compound C-1009]	926
COc1ccc(C[C@H](NC(=O)[C@@H](C)NC(=O)[C@H]2CCCOC2)C(=O)N[C@@H](CC2CCCC2)C(=O)[C@@]2(C)CO2)cc1 [Compound C-1053]	4540
COc1ccc([C@@H](O)[C@H](NC(=O)[C@H](CO)NC(=O)CN2CCOCC2)C(=O)N[C@@H](CC2=CCCC2)C(=O)[C@@]2(C)CO2)cc1 [Compound C-1144]	266
COc1ccc(C[C@H](NC(=O)[C@H](C)NC(=O)CN2CCOCC2)C(=O)N[C@@H](CC2=CCCCC2)C(=O)[C@@]2(C)CO2)cc1 [Compound C-1019]	9330
COc1ccc([C@@H](O)[C@H](NC(=O)[C@H](C)NC(=O)CN2CCOCC2)C(=O)N[C@@H](CC2=CCCCC2)C(=O)[C@@]2(C)CO2)cc1 [Compound C-1082]	3530
COc1ccc([C@@H](O)[C@H](NC(=O)[C@H](CO)NC(=O)CN2CCOCC2)C(=O)N[C@@H](CC2=CCCCC2)C(=O)[C@@]2(C)CO2)cc1 [Compound C-1116]	2940
COc1ccc(C[C@H](NC(=O)[C@H](C)NC(=O)CN2CCOCC2)C(=O)N[C@@H](CC2CCCC2)C(=O)[C@H]2CO2)cc1 [Compound C-1030]	497
C[C@H](NC(=O)CN1CCOCC1)C(=O)N[C@@H](Cc1coc2ccccc12)C(=O)N[C@@H](CC1CCCC1)C(=O)[C@@]1(C)CO1 [Compound C-1015]	1140
COc1ccc(C[C@H](NC(=O)[C@H](C)NC(=O)CN2CCOCC2)C(=O)N[C@@H](CC2=CCCC2)C(=O)[C@@]2(C)CO2)cc1O [Compound C-1085]	1840
COc1ccc([C@@H](O)[C@H](NC(=O)[C@H](C)NC(=O)CN2CCOCC2)C(=O)N[C@@H](CC2CCCC2)C(=O)[C@@]2(C)CO2)cc1 [Compound C-1022]	1110
COc1ccc(C[C@H](NC(=O)[C@H](CO)NC(=O)CN2CCOCC2)C(=O)N[C@@H](CC2=CCCCC2)C(=O)[C@@]2(C)CO2)cc1 [Compound C-1104]	2210
COc1ccc(C[C@H](NC(=O)[C@H](C)NC(=O)CN2CCOCC2)C(=O)N[C@@H](CC2CC2)C(=O)[C@@]2(C)CO2)cc1 [Compound C-1006]	5240
C[C@H](NC(=O)CN1CCOCC1)C(=O)N[C@@H](Cc1ccc(S(N)(=O)=O)cc1)C(=O)N[C@@H](CC1CCCC1)C(=O)[C@@]1(C)CO1 [Compound C-1054]	805
C[C@@H](NC(=O)C1CCOCC1)C(=O)N[C@@H](Cc1ccc(S(C)(=O)=O)cc1)C(=O)N[C@@H](CC1CCCC1)C(=O)[C@@]1(C)CO1 [Compound C-1051]	705
COc1ccc([C@@H](O)[C@H](NC(=O)[C@@H](C)NC(=O)[C@H]2CC[C@H](O)CC2)C(=O)N[C@@H](CC2=CCCC2)C(=O)[C@@]2(C)CO2)cc1 [Compound C-1080]	1180
COc1ccc(C[C@H](NC(=O)[C@@H](C)NC(=O)[C@H]2CC[C@@](C)(O)CC2)C(=O)N[C@@H](CC2=CCCC2)C(=O)[C@@]2(C)CO2)cc1 [Compound C-1088]	2250
COc1ccc(C[C@H](NC(=O)[C@@H](C)NC(=O)CC2CCOCC2)C(=O)N[C@@H](CC2CCCC2)C(=O)[C@@]2(C)CO2)cc1 [Compound C-1011]	6970
COc1ccc(C[C@H](NC(=O)[C@H](C)NC(=O)CN2CCOCC2)C(=O)N[C@@H](CC2CCCC2)C(=O)[C@@]2(C)CO2)cc1O [Compound C-1018]	1730
COc1ccc(C[C@H](NC(=O)[C@@H](CO)NC(=O)[C@H]2CC[C@H](O)CC2)C(=O)N[C@@H](CC2=CCCC2)C(=O)[C@@]2(C)CO2)cc1 [Compound C-1092]	2040
COc1ccc(C[C@H](NC(=O)[C@H](C)NC(=O)CN2CCOCC2)C(=O)N[C@@H](Cc2ccc(O)cc2)C(=O)[C@@]2(C)CO2)cc1 [Compound C-1162]	595
COc1ccc(C[C@H](NC(=O)[C@H](CO)NC(=O)CN2CCOCC2)C(=O)N[C@@H](Cc2ccccc2)C(=O)[C@@]2(C)CO2)cc1 [Compound C-1159]	454
